B1: POU domain, class 5, transcription factor 1, residues 134 to 212; numbered along this chain, Q01860 (parent)
chain: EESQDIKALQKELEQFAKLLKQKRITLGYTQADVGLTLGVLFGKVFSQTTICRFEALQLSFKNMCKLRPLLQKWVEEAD

Variants of: B1
MEASUREMENT_PROTOCOL: abundance fitness (aPCA) (normalised: wild type 0, dead -1); higher = more abundant; growth selection in yeast, the domain comes from the species named
CONDITIONS: Homo sapiens
QUANTITY_KIND: abundance fitness
// response body must contain only the number

Solved entries (count: 5):
> print(dat)
   mutant.id  measured.result
1        Q4C           -0.211
2       C65V           -0.178
3       F16G           -0.522
4       T37I           -0.093
5       L20W           -0.741

Task: Can you look up the measured abundance fitness of `F54C` for me?
Output: -0.5

Task: Can you look up the measured abundance fitness of `L57H` for me?
Output: 0.298

Task: Can you look up the measured abundance fitness of `A56S` for me?
Output: -0.002
